Origin of values: patent US20210024507A1

- TARGET OF ASSAY: human CTPS1 (Homo sapiens)
- Construct: purchased Proteros biostructures GmbH
- Sequence (P17812 whole entry): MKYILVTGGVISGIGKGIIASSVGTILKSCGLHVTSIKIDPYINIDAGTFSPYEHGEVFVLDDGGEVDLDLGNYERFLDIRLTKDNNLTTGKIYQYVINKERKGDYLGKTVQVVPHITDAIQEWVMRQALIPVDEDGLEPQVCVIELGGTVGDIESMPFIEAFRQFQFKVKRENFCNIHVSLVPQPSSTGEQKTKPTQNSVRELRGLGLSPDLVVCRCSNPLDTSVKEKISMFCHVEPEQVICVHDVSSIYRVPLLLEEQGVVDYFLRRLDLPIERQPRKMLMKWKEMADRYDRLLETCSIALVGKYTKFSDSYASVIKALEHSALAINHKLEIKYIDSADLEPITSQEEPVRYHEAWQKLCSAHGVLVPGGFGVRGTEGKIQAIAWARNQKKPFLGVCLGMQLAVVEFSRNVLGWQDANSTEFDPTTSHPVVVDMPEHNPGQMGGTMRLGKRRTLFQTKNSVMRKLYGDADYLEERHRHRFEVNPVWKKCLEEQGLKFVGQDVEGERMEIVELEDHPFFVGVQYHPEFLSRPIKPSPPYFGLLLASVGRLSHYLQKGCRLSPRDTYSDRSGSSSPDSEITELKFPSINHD
- ASSAY OVERVIEW: Human CTPS1 enzyme inhibition (ADP-Glo Max assay)
- Format: biochemical
- CONDITION DETAILS: human full length CTPS1, 25° C., read-out: CTPS1 (Human CTPS1 Enzyme Inhibition, IC50 grouped by potency range)
pIC50: −log10 of the molar value.
PROPERTY: pIC50

Example cases with answers are listed next.
I am curious: what pIC50 value has been reported for CCOc1cncc(-c2ccc(NC(=O)C(OC)c3cncc(NS(=O)(=O)C4CC4)n3)cc2)n1 (centres unmarked) [P204] ?
≥ 7.00

Same thing, different compound: CCC(C(=O)Nc1ccc(-c2cncc(OC(C)C)n2)cn1)c1ccnc(NS(=O)(=O)C2CC2)n1 (centres unmarked) [P89]
≥ 7.00

Same question, CCC(C(=O)Nc1ccc(-c2cncc(OCC(F)(F)F)c2)cc1F)c1ccnc(NS(=O)(=O)C2CC2)n1 (centres unmarked) [P91] this time
6.00 to 7.00

What do you get for CCC(C(=O)Nc1ccc(-c2cncc(OC)n2)cc1F)c1ccnc(NS(=O)(=O)C2CC2)n1 (centres unmarked) [P95] ?
≥ 7.00

Same for CCOc1cncc(-c2ccc(NC(=O)C(F)(CC)c3ccnc(NS(=O)(=O)C4CC4)n3)nc2)n1 (single isomer, unassigned) [P113]
≥ 7.00

Another compound: CCC(NC(=O)c1ccc(-c2cncc(Cl)c2)cc1)c1ccnc(NS(=O)(=O)C2CC2)n1 (centres unmarked) [P214]
6.00 to 7.00

New cases:
Would you mind telling me what pIC50 value was observed for CCOc1cncc(-c2ccc(NC(=O)C(CCOC)c3ccnc(NS(=O)(=O)C4CC4)n3)cc2)n1 (centres unmarked) [P110] ?
≥ 7.00

Here is the next compound: CCC(C(=O)Nc1ccc(-c2cncc(OC(C)C)c2)cc1)c1ccnc(NS(=O)(=O)C2CC2)n1 (centres unmarked) [P101]
6.00 to 7.00
